System: Bacillus subtilis
Assay: cleaved RNA product abundance (RNA/gDNA barcode ratio) relative to median wild-type variant (ratio to wild type); higher = more accumulation of the downstream cleavage product
Details: experiment (reporter, strain, medium): exp 4a: truncated aprE reporter, strain BJT201 with 2% xylose (RNase J1 expressed); cleavage site: cggR-gapA (positions -7 to +36 mutated)
Value type: cleaved RNA product abundance
One number for each entry.

Some sequences with known cleaved RNA product abundance results, for comparison:
>  <Biopolymer sequence>
ACAGACGAAGGAGCCGCAAAGAAGTTATTAAGGGAGGAATAATCCCTCAATATAAATATCTCTCACTTATTTAAA

>  <Tested target>
Bacillus subtilis

>  <Value type>
cleaved RNA product abundance

>  <Val>
0.603

$$$$
>  <Biopolymer sequence>
ACAGACGAAGGAGCCGCAAAGAAGTTATTAAGGGATGAAAAATCCCTCAATATAAATAGCTCTCACTTATTTAAA

>  <Tested target>
Bacillus subtilis

>  <Value type>
cleaved RNA product abundance

>  <Val>
0.554

$$$$
>  <Biopolymer sequence>
ACAGACGAAGGAGCCGCAAAGAAGGTATTAAGGGATAAATAATCCCTCAATATAAATATCTCTCACTTATTTAAA

>  <Tested target>
Bacillus subtilis

>  <Value type>
cleaved RNA product abundance

>  <Val>
1.29

$$$$
>  <Biopolymer sequence>
ACAGACGAAGGAGCCGCAAAGAAGTTATTACGGGATGAATAATGCCTCAATATAAATATCTCTCACTTATTTAAA

>  <Tested target>
Bacillus subtilis

>  <Value type>
cleaved RNA product abundance

>  <Val>
0.128

$$$$

Please give cleaved RNA product abundance for each item listed below.
1. ACAGACGAAGGAGCCGCAAAGAAGTTATTAAGGGATGAATAATACCCCAATATAAATATCTCTCACTTATTTAAA
2. ACAGACGAAGGAGCCGCAAAGAAATTATTAAGGGATGAATAATCCCTCAATATAAATTTCTCTCACTTATTTAAA
3. ACAGACGAAGGAGCCGCAAAGAAATTATTAAGGGATAAATAATCCCTCAATATAAATATCTCTCACTTATTTAAA
4. ACAGACGAAGGAGCCGCAAAGAAGTTATTACGGGAAGAATAATCCCTCAATATAAATATCTCTCACTTATTTAAA
5. ACAGACGAAGGAGCCGCAAAGAAGTTATTAAGGGTCGAATAATCCCTCAATATAAATATCTCTCACTTATTTAAA
6. ACAGACGAAGGAGCCGCAAAGAAGTTGTTAAGTGATGAATAATCCCTCAATATAAATATCTCTCACTTATTTAAA
7. ACAGACGAAGGAGCCGCATAGAAGTTATTAAGGGATGAATAATCCCACAATATAAATATCTCTCACTTATTTAAA

Reply:
0.149
0.361
0.761
0.322
0.211
0.0952
0.292

Please give cleaved RNA product abundance for each item listed below.
1. ACAGACGAAGGAGCCGCAAAGAAGTTATTAAGGGACGAATAAACCCTCAATATAAATATCTCTCACTTATTTAAA
2. ACAGACGAAGGAGCCGCACAGAACTTATTAAGGGATGAATAATCCCTCAATATAAATATCTCTCACTTATTTAAA
3. ACAGACGAAGGAGCCGCAAAGAAGTTATTAAGGGATGAATAATCCGTAAATATAAATATCTCTCACTTATTTAAA
4. ACAGACGAAGGAGCCGCACAGAAGTTATTAAGGGATGAATAATCCCTGAATATAAATATCTCTCACTTATTTAAA

Reply:
0.237
0.558
0.28
0.523

From: the supplement of paper PMC11780869
